These measurements were taken from patent US8933195B2.

# Test system: BGC-823 (human gastric cancer cells)
Documented GI50 across a set of molecules
endpoint-name: GI50 (nM)

> print(dat)
                              line.notation  unit  experimental.result
1  C/C=C1\NC(=O)c2csc(n2)CNC(=O)C[C@@H](/C=C/CCSC(=O)CCN)OC(=O)[C@H](C(C)C)NC1=O    nM                   65
2  C/C=C1\NC(=O)c2csc(n2)CNC(=O)C[C@@H](/C=C/CCSC(=O)CCCCCCC)OC(=O)CNC1=O    nM                  100
3  C/C=C1\NC(=O)c2csc(n2)CNC(=O)C[C@@H](/C=C/CCS)OC(=O)[C@H](C(C)C)NC1=O    nM                  360
4  C/C=C1\NC(=O)c2csc(n2)[C@H](Cc2ccc(O)cc2)NC(=O)C[C@@H](/C=C/CCSC(=O)CCCCCCC)OC(=O)[C@H](C(C)C)NC1=O    nM                 1020
5  C/C=C1\NC(=O)C2=NC(=NC2)CNC(=O)C[C@@H](/C=C/CCSC(=O)CCCCCCC)OC(=O)[C@H](C(C)C)NC1=O    nM                20600
6  C/C=C1\NC(=O)c2csc(n2)CNC(=O)C[C@@H](/C=C/CCSC(=O)CCCCCCC)OC(=O)[C@H](C(C)(C)C)NC1=O    nM                  400

---

Consider molecules characterized by their log10(GI50) with BGC-823 (human gastric cancer cells).
endpoint-name: log10(GI50) (log10 of the value in nM)

> print(dat)
                                    molecule                           test.target  experimental.result
 1  C/C=C1\NC(=O)c2coc(n2)CNC(=O)C[C@@H](/C=C/CCSC(=O)CCCCCCC)OC(=O)[C@H](C(C)C)NC1=O  BGC-823 (human gastric cancer cells)                 3.70
 2  C/C=C1\NC(=O)c2cccc(c2)CNC(=O)C[C@@H](/C=C/CCSC(=O)CCCCCCC)OC(=O)[C@H](C(C)C)NC1=O  BGC-823 (human gastric cancer cells)                 4.75
 3  C/C=C1\NC(=O)c2csc(n2)[C@H](C(C)C)NC(=O)C[C@@H](/C=C/CCSC(=O)CCCCCCC)OC(=O)[C@H](C(C)C)NC1=O  BGC-823 (human gastric cancer cells)                 2.36
 4  C/C=C1\NC(=O)C2N=C(CNC(=O)C[C@@H](/C=C/CCSC(=O)CCCCCCC)OC(=O)[C@H](C(C)C)NC1=O)O[C@@H]2C (stereo partly shown)  BGC-823 (human gastric cancer cells)                 3.20
 5  O=C(CCCCCCC(=O)Nc1ccccc1)NO [SAHA, suberoylanilide hydroxamic acid, reference compound]  BGC-823 (human gastric cancer cells)                 3.65
 6  C/C=C1\NC(=O)c2csc(n2)CNC(=O)C[C@@H](/C=C/CCSC(=O)CCCCCCC)OC(=O)[C@H](C(C)C)NC1=O  BGC-823 (human gastric cancer cells)                 1.78
 7  CCCCCCCC(=O)SCC/C=C/[C@@H]1CC(=O)NCc2nc(cs2)C(=O)NCC(=O)N[C@@H](C(C)C)C(=O)O1  BGC-823 (human gastric cancer cells)                 3.77
 8  C/C=C1\NC(=O)C2C=NC(=N2)CNC(=O)C[C@@H](/C=C/CCSC(=O)CCCCCCC)OC(=O)[C@H](C(C)C)NC1=O (stereo partly shown)  BGC-823 (human gastric cancer cells)                 3.41
 9  C/C=C1\NC(=O)c2csc(n2)CNC(=O)C[C@@H](/C=C/CCSC(=O)CCCCCCC)OC(=O)[C@H](CSCC)NC1=O  BGC-823 (human gastric cancer cells)                 1.78
10  C/C=C1\NC(=O)c2csc(n2)CNC(=O)C[C@@H](/C=C/CCSC(=O)CCO)OC(=O)[C@H](C(C)C)NC1=O  BGC-823 (human gastric cancer cells)                 4.42
11  C/C=C1\NC(=O)c2csc(n2)CNC(=O)C[C@@H](/C=C/CCSC(=O)CCCCCCC)OC(=O)[C@H](CC(C)C)NC1=O  BGC-823 (human gastric cancer cells)                 2.20
12  C/C=C1\NC(=O)c2csc(n2)CNC(=O)C[C@@H](/C=C/CCSC(=O)CCCCCCCCCCCC)OC(=O)[C@H](C(C)C)NC1=O  BGC-823 (human gastric cancer cells)                 3.70
13  C/C=C1\NC(=O)c2csc(n2)CNC(=O)C[C@@H](/C=C/CCSC(=O)CCCCCCC)OC(=O)[C@H](Cc2cccc3ccccc23)NC1=O  BGC-823 (human gastric cancer cells)                 1.70

---

# test-target: HDAC1 (Homo sapiens)
# Sequence (Q13547 whole entry, species assumed): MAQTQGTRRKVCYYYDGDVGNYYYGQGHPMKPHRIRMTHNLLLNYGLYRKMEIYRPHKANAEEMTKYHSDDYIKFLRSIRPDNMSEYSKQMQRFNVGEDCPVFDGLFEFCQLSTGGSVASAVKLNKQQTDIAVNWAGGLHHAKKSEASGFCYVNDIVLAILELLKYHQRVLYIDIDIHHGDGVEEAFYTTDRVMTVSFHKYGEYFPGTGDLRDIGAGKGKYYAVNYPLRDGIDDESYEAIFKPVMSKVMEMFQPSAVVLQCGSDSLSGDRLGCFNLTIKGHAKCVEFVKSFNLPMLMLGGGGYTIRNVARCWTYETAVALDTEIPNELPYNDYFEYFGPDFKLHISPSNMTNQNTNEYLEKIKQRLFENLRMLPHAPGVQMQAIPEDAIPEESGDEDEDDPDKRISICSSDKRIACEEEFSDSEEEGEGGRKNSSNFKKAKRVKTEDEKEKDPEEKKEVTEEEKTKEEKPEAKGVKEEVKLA
# test-protocol: Measurement of biochemical activities of HDAC (fluorescently-labeled acetylated lysine substrate)
# measurement-conditions: read-out: IC50 HDAC1
endpoint-name: IC50

> print(dat)
                              line.notation  experimental.result
1  C/C=C1\NC(=O)c2csc(n2)CNC(=O)C[C@@H](/C=C/CCSC(=O)CCCCCCC)OC(=O)CNC1=O             < 0.1 µM
2  C/C=C1\NC(=O)c2csc(n2)CNC(=O)C[C@@H](/C=C/CCSC(=O)CCCCCCC)OC(=O)[C@H](Cc2cccc3ccccc23)NC1=O              < 10 µM
3  C/C=C1\NC(=O)c2csc(n2)CNC(=O)C[C@@H](/C=C/CCSC(=O)CCO)OC(=O)[C@H](C(C)C)NC1=O              < 10 µM
4  C/C=C1\NC(=O)c2csc(n2)CNC(=O)C[C@@H](/C=C/CCSC(C)=O)OC(=O)[C@H](C(C)C)NC1=O              < 10 µM
5  C/C=C1\NC(=O)c2csc(n2)CNC(=O)C[C@@H](/C=C/CCSC(=O)Cc2ccccc2)OC(=O)[C@H](C(C)C)NC1=O              < 10 µM
6  C/C=C1\NC(=O)c2coc(n2)CNC(=O)C[C@@H](/C=C/CCSC(=O)CCCCCCC)OC(=O)[C@H](C(C)C)NC1=O             < 0.1 µM
7  C/C=C1\NC(=O)c2csc(n2)CNC(=O)C[C@@H](/C=C/CCSC(=O)CCCCCCC)OC(=O)[C@H](C)N(C)C1=O              < 10 µM
8  C/C=C1\NC(=O)c2csc(n2)CNC(=O)C[C@@H](/C=C/CCSC(=O)CCN)OC(=O)[C@H](C(C)C)NC1=O               < 1 µM
9  C/C=C1\NC(=O)c2csc(n2)CNC(=O)C[C@@H](/C=C/CCSC(=O)CCCCCCC)OC(=O)[C@H](C(C)C)N(C)C1=O              < 10 µM

---

Consider compounds characterized by their GI50 with MCF-7 (human breast cancer cells).

compound	test-target	GI50 [nM]
C/C=C1\NC(=O)C2=NC(=NC2)CNC(=O)C[C@@H](/C=C/CCSC(=O)CCCCCCC)OC(=O)[C@H](C(C)C)NC1=O [Compound 2-5]	MCF-7 (human breast cancer cells)	26000
C/C=C1\NC(=O)c2csc(n2)CNC(=O)C[C@@H](/C=C/CCSC(=O)CCCCCCC)OC(=O)CNC1=O [Compound 1-1]	MCF-7 (human breast cancer cells)	90
C/C=C1\NC(=O)c2csc(n2)[C@H](C)NC(=O)C[C@@H](/C=C/CCSC(=O)CCCCCCC)OC(=O)[C@H](C(C)C)NC1=O [Compound 4-2]	MCF-7 (human breast cancer cells)	150
C/C=C1\NC(=O)c2csc(n2)CNC(=O)C[C@@H](/C=C/CCSC(=O)CCCCCCC)OC(=O)[C@H](CC)NC1=O [Compound 1-2]	MCF-7 (human breast cancer cells)	50
C/C=C1\NC(=O)c2csc(n2)CNC(=O)C[C@@H](/C=C/CCSC(=O)CCCCCCCCCCCC)OC(=O)[C@H](C(C)C)NC1=O [Compound 6-3]	MCF-7 (human breast cancer cells)	56600
C/C=C1\NC(=O)c2csc(n2)CNC(=O)C[C@@H](/C=C/CCSC(=O)CCCCCCC)OC(=O)[C@H](CC(C)C)NC1=O [Compound 1-11]	MCF-7 (human breast cancer cells)	90
C/C=C1\NC(=O)c2csc(n2)CNC(=O)C[C@@H](/C=C/CCSC(=O)CCCCCCC)OC(=O)[C@H](Cc2ccc(O)cc2)NC1=O [Compound 1-8]	MCF-7 (human breast cancer cells)	100
C/C=C1\NC(=O)c2csc(n2)CNC(=O)C[C@@H](/C=C/CCSC(=O)CCCCCCC)OC(=O)[C@@H](C)NC1=O [Compound 1-5]	MCF-7 (human breast cancer cells)	800
C/C=C1\NC(=O)C2C=NC(=N2)CNC(=O)C[C@@H](/C=C/CCSC(=O)CCCCCCC)OC(=O)[C@H](C(C)C)NC1=O (some centres unmarked) [Compound 2-4]	MCF-7 (human breast cancer cells)	52600
C/C=C1\NC(=O)c2csc(n2)CNC(=O)C[C@@H](/C=C/CCSC(=O)CCCCCCC)OC(=O)[C@H](C)N(C)C1=O [Compound 5-1]	MCF-7 (human breast cancer cells)	3650
C/C=C1\NC(=O)c2csc(n2)CNC(=O)C[C@@H](/C=C/CCSC(=O)CCN)OC(=O)[C@H](C(C)C)NC1=O [Compound 6-6]	MCF-7 (human breast cancer cells)	952
C/C=C1\NC(=O)c2csc(n2)CNC(=O)C[C@@H](/C=C/CCSC(C)=O)OC(=O)[C@H](C(C)C)NC1=O [Compound 6-2]	MCF-7 (human breast cancer cells)	59600
C/C=C1\NC(=O)c2coc(n2)CNC(=O)C[C@@H](/C=C/CCSC(=O)CCCCCCC)OC(=O)[C@H](C(C)C)NC1=O [Compound 2-1]	MCF-7 (human breast cancer cells)	500
C/C=C1\NC(=O)c2csc(n2)CNC(=O)C[C@@H](/C=C/CCSC(=O)CCCCCCC)OC(=O)[C@H](Cc2cccc3ccccc23)NC1=O [Compound 1-9]	MCF-7 (human breast cancer cells)	50
C/C=C1\NC(=O)c2ccnc(c2)CNC(=O)C[C@@H](/C=C/CCSC(=O)CCCCCCC)OC(=O)[C@H](C(C)C)NC1=O [Compound 2-7]	MCF-7 (human breast cancer cells)	90
C/C=C1\NC(=O)c2csc(n2)CNC(=O)C[C@@H](/C=C/CCSC(=O)CCCCCCC)OC(=O)[C@H](C(C)(C)C)NC1=O [Compound 1-6]	MCF-7 (human breast cancer cells)	600
C/C=C1\NC(=O)c2csc(n2)CNC(=O)C[C@@H](/C=C/CCSC(=O)CCCCCCC)OC(=O)[C@H](CSCC)NC1=O [Compound 1-12]	MCF-7 (human breast cancer cells)	800
